System: FAB9
Assay: qHTS profiling for inhibitors of Plasmodium falciparum proliferation (AID 504749); also: nearly all actives have a fitted effect of over 60% in size
Details: P. falciparum in erythrocytes, SYBR Green DNA, 72 h; series mostly up to 28.7 µM
Records with an inconclusive call do not appear. Calls of active or inactive are those of the source. Calls follow the shape of the dose curve; as a rule, active = well fitted inhibition curve with a large enough effect; inconclusive = small, poorly fitted or top-dose-only effect; inactive = flat fitted curve, though single readings scatter. Peptide text beside a SMILES is read from it.

{"Molecule": "CCCCCCCCCCCCCCCC(=O)OCC(COC(=O)CCCCCCCCCCCCCCC)OC(=O)CCCCCCCCCCCCCCC", "outcome": "inactive"}
{"Molecule": "CCCCCC(CC)COC(=O)CC(C(=O)OCC(CC)CCCC)S(=O)(=O)O (centres undefined)", "outcome": "inactive"}
{"Molecule": "CC(=O)N[C@@H](CC(=O)O)C(=O)N[C@@H](CCC(=O)O)C(=O)O (Ac-Asp-Glu-OH)", "outcome": "inactive"}
{"Molecule": "C[C@]12CCC(=O)C=C1CC[C@@H]1[C@@H]2[C@@H](O)C[C@@]2(C)[C@H]1CC[C@]2(O)C(=O)COP(=O)(O)O", "outcome": "inactive"}

Source listed as PubChem BioAssay (NCATS).
